Test System: T1, monkey NPR1 extracellular domain expressed with a C-terminal myc-myc-hexahistidine (mfNPR1-MMH) (monkey, UniProt P16066 33-473 (human entry))
T1 construct: also called monomeric monkey NPR1
T1 chain: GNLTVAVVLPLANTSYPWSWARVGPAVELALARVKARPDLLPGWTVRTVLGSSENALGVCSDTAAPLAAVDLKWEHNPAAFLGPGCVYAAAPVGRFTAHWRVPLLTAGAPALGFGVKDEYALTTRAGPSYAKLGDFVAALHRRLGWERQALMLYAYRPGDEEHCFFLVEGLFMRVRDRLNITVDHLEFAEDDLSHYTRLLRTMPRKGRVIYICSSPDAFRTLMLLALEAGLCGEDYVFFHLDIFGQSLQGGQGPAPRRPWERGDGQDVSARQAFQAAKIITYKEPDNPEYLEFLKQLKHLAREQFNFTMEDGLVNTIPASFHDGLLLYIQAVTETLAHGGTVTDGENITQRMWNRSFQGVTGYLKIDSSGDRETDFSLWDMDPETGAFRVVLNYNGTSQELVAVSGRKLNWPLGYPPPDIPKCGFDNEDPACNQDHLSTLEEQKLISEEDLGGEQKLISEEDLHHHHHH
Assay Name: SPR, mAb captured, 37 C
Quantity Kind: 100 nM Ag Bound (RU)
Enter your answer as a number in RU; do not include the unit.

Answered cases to consult:
mAb22809 (antibody, V domains shown) VH: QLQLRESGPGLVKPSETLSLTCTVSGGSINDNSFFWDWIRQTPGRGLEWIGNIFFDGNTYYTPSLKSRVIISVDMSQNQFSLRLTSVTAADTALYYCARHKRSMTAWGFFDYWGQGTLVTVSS VL: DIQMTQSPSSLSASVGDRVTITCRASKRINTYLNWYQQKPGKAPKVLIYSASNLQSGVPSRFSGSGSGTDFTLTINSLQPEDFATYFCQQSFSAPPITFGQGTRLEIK
1
mAb25502 (antibody, V domains shown) VH: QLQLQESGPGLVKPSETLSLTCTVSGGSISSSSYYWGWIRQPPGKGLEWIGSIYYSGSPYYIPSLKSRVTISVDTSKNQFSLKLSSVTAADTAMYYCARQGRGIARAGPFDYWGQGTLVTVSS VL: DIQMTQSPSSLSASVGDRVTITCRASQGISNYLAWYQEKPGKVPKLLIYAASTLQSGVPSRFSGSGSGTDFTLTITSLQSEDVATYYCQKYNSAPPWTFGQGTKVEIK
6
mAb25479 (antibody, V domains shown) VH: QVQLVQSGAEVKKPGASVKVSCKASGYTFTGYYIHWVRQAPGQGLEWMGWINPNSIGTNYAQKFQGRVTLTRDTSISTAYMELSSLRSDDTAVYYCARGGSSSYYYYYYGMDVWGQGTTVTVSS VL: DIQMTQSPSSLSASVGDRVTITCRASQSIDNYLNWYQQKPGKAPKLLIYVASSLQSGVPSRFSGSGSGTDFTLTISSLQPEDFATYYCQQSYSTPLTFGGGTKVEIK
43
mAb22810 (antibody, V domains shown) VH: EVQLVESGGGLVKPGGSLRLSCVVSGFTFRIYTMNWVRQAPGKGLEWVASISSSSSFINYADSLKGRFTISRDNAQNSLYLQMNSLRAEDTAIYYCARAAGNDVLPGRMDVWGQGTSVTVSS VL: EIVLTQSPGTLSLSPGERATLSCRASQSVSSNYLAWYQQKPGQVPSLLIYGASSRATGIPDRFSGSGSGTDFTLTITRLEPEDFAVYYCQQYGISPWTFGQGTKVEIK
0
mAb22033 (antibody, V domains shown) VH: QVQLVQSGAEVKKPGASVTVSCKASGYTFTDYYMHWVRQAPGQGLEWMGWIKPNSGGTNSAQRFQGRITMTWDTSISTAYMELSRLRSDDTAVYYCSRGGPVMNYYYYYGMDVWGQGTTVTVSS VL: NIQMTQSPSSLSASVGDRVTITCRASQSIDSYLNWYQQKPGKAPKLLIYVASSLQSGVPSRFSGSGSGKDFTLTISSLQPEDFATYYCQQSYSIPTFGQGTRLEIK
131

Give a short answer stating reported 100 nM Ag Bound (RU) for mAb22035 (antibody, V domains shown) VH: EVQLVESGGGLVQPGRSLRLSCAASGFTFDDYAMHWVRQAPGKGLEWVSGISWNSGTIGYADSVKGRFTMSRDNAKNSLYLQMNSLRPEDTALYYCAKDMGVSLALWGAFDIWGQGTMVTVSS VL: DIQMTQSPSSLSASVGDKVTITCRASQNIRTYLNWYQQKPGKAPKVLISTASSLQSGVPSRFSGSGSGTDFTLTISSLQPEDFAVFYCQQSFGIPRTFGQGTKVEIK .
319

Hello, please tell me recorded 100 nM Ag Bound (RU) for this one: mAb25491 (antibody, V domains shown) VH: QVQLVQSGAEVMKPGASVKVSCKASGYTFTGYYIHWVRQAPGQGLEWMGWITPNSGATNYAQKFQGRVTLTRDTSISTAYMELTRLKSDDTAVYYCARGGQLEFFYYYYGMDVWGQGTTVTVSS VL: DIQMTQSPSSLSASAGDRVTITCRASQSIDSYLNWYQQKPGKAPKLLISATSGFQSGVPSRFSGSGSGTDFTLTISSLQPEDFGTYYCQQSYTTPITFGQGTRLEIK
106
